# Tested on: NCI/ADR-RES
# Test: NCI tumour cell line growth inhibition, 48 h
Calls of active or inactive are those of the source. Cut-off read from the data, not from the text of the source: active = GI50 up to about 1.1 µM and inactive = higher.
Measurement Name: GI50

> print(dat)
                                    compound  measurement.name             reported
 1  CC(C)C1NC(=O)CC(c2ccccc2)N(N=O)C1c1ccccc1 (configuration not stated)              GI50  > 100 µM (inactive)
 2  O=C(CCCN1CCC(Nc2ccc(F)cc2)(c2nnnn2C2CCCCC2)CC1)c1ccc(F)cc1              GI50   16.3 µM (inactive)
 3  Cc1cc2c(cc1N)C(C)C1(CCC(=O)N2Cc2ccccc2)OCCO1 (configuration not stated)              GI50  > 100 µM (inactive)
 4                Nc1c(O)c(C(=O)O)cc2ccccc12              GI50   32.1 µM (inactive)
 5        C1CSCCCSCCCSCCCSCCCSCCCSCCCSCCCSC1              GI50  > 100 µM (inactive)
 6  CN1c2ccccc2C(=O)NC12CCN(CC1COc3ccccc3O1)CC2 (configuration not stated)              GI50   31.6 µM (inactive)
 7  O=[N+]([O-])c1ccc2ncccc2c1CCc1c([N+](=O)[O-])ccc2ncccc12              GI50  > 100 µM (inactive)
 8  O=[N+]([O-])c1ccc(S(=O)(=O)n2c3ccc(Br)cc3c3nc4ccccc4nc32)cc1              GI50  > 100 µM (inactive)
 9      CSC1=C(C(=O)Nc2ccc(Cl)cc2)C(N)=NC1=O              GI50  > 100 µM (inactive)
10  O=C(O)c1ccccc1/N=N\c1c(O)c(S(=O)(=O)O)cc2cc(S(=O)(=O)O)ccc12              GI50     1.06 µM (active)
11                      CCc1ccc2oc(=O)ccc2c1              GI50  > 100 µM (inactive)
12  CC1(C)C(=O)c2ccccc2OC1N1CCN(C2Oc3ccccc3C(=O)C2(C)C)CC1 (configuration not stated)              GI50  > 100 µM (inactive)
13  CC1(C)CCCCCC(O)C(O)CCC(C)(C)C1=O (configuration not stated)              GI50  > 100 µM (inactive)
14  CCOC(=O)c1ccc(N(C)Cc2cnc3nc(N)nc(N)c3n2)cc1              GI50    7.8 µM (inactive)
15   Cc1ccc(C)n1-n1c(Cc2ccc(Cl)cc2)n[nH]c1=O              GI50   40.8 µM (inactive)
16  O=S(=O)(Oc1ccc2oc3ccccc3c2c1-c1c(OS(=O)(=O)C(F)(F)F)ccc2oc3ccccc3c12)C(F)(F)F              GI50  > 100 µM (inactive)
17  Cc1cnc(NCCCN(C)C)c2c1[nH]c1ccc3cc(O)ccc3c12              GI50   3.44 µM (inactive)

* * *

# Test system: DMS-273
# Test: NCI tumour cell line growth inhibition, 48 h
Calls of active or inactive are those of the source. Rule as the data show it: active = GI50 up to about 1.1 µM and inactive = higher.
Outcomes: active, inactive

> print(dat)
                                    molecule  system.name     class
 1  O=C1OC(O)C(Oc2c(Cl)cccc2Cl)=C1Cl (configuration not stated)      DMS-273  inactive
 2        C=CCCCCCCCCC(=O)NS(=O)(=O)c1ccccc1      DMS-273  inactive
 3  CC(C(=O)c1ccccc1)C1(O)C(=O)Nc2ccccc21 (configuration not stated)      DMS-273  inactive
 4  COc1cccc2c1C(=O)c1c(O)c3c(c(O)c1C2=O)C[C@@](O)(C(C)O)C[C@@H]3OC1CC(N)C(O)C(C)O1 (some centres not stated)      DMS-273    active
 5  O=C(CC1(O)C(=O)Nc2ccccc21)c1ccc(Cl)c(Cl)c1 (configuration not stated)      DMS-273  inactive
 6  CC(NCCS(=O)(=O)O)C(=O)O (configuration not stated)      DMS-273  inactive
 7  COC1N(C2CC(O)C(CO)O2)C(=O)NC(=O)C1(F)Br (configuration not stated)      DMS-273  inactive
 8  COc1cc(/C=C2\[C@H]3c4c(c(OC)c(C)c(OC)c4OC)C[C@@H](C(=O)N2Cc2ccccc2)N3C(=O)OCC(C)C)c(OC)c(C)c1OC      DMS-273  inactive
 9  C=CCc1cc(-c2cc(CC=C)c(O)c(CN(CC)CC)c2)cc(CN(CC)CC)c1O      DMS-273  inactive
10  CC(=O)Nc1ccc(C(=O)NN2C(=O)C(Cl)C2c2ccc(O)cc2)cc1 (configuration not stated)      DMS-273  inactive
11  COc1cc(C2c3cc4c(cc3OC3(O)COC(=O)C23)OCO4)cc(OC)c1OC (configuration not stated)      DMS-273  inactive
12  C=CCN(N=O)C(=O)N(CCC)CCCCC(NC(C)=O)C(=O)NCc1ccccc1 (configuration not stated)      DMS-273  inactive
